Data provenance: the supplement of paper PMC12455559

test: PET hydrolysis, aromatic products released after 48 h (umol product/mg enzyme); higher = more PET depolymerization activity; conditions: substrate: cryPow; 60 °C; pH 5.5
observationType: PET hydrolysis

Query: Look up PET hydrolysis for this sequence: QYQKGPDPTVAGLERDGTFAIRTTTVSRLSASGFGGGTIYYPTATGSYGVVAVSPGFTAYQSSISWIGSRLASHGFVVITIDTNTTSDQPDSRARQLKAALDKVVSLASSRTNVLYGKVDSSRLAVAGHSMGGGGSLAAARDYPSLKASVPLAPWHTTKSFSTVRVPTLIVGADGDTVASVTSHSIPFYTSIPSSTPKGYLELNNEDHFFPQDSGEYGLVGKYMISWFKRFVDSDTRYSPFLCGAPHQTQIANTLRVSDSRTNCPY [DP038]
Result: < 3

Query: Look up PET hydrolysis for this sequence: ADNPYERGPNPTESLIEAARGPFATSQTTVSSLSVTGFGGGVIYYPTDTSQGTFGGIAISPGYTAAWSSLDWLGPRLASHGFVVIGIETNTRLDQPASRGDQLLAALDYLTQRSSVRSRVDATRLAVAGHSMGGGGSLEAAKDRTSLKAAIPLAPWNTDKTWPEVRTPTLIIGGESDTVAPVSSHSIPFYTSLTSAREKAYLELDNASHFFPQTSNTTMAKYMISWMKRYIDNDTRYEQFLCPGPSTGLLSGISDWRQTCPGS [TEP073]
Result: < 3

----------
Exercise: state measured purified protein yield per well for each of the sequences provided.
assay: purified protein yield per well (BCA); higher = higher soluble expression

Query: Look up purified protein yield per well for this sequence: AEAADNPYQRGPDPTLASVAATRGPFATAQATVPAGNGFNGGYVYYPTDTSLGTWGAVAIVPGYSALFADEEAWMGPWLASFGFVVLGIETNSRTDGADARATQLLAALDYLTQSSPVRHRVDANRLGVMGHSAGGAGTLMAALRRPSLKSAVGLAPGAPGNSLNMSTTQVPTMLISGQNDGTVTPSYVQGIYNTLPATVEHAWAELAGNDHLSFTRPNPTEMRILIPWLKIFLDNDTRYTQFLCPLADSTGVSRYSATCPLVPPGGPTAPPTVTPPPPTPTTPSPTTPPTSAACTATYRTVNSWSGGFQGEVTVTAGRAAINGWTVRWDLGNGQSISQVWNGTLSTSGSTATVRNVSYNGSLAPAASTGFGFLGTGAPAIPRLTCTSP [ESM037]
Result: 358 µg

Query: Look up purified protein yield per well for this sequence: VPVVPAQQENPYQRGPDPTPESVEAPRGSFAIEKATIARGSVQGFGGGTIYYPTDTAEGTFGAVAISPGFTESQSAISWYGERLATQGFVVFTIDTNGGLDQPDSRADQLLAALDFLTGSSEVKDRIDASRLGVLGHSMGGGGSLSAAKKRPALQAAVPLAPWHTNSNWSDVTVPTLIVGAENDAVAPVGMHAEPFYAGLTKAPEKAYLELKGADHFVTNSPNTVIAKSTLSWLKRFIDDDTRYDQFLCPPPKPDNDISEYRDTCPN [DP051]
Result: < 25 µg

Query: Look up purified protein yield per well for this sequence: SAAGNNIGHRQGGDTFASATVIEALPFSDSGTTSGFNNDYGPYSNQSSYNICQWQGYYDNTNTGAGPDVVYSLALSEEKTVKISLCGSDYDTGLGVFDGSGVQVLGNDDACSLQSEVVCALPEGLYYIVVDGYSTSSGNYVLNVSIEEDLFGPYSVGTITEDDGLRDGPDYCCGIVYYPTDAVGYLPAIVYIPGYAGTISSNENWGPYLASHGIVTMFVNANFSLASNETRAEALLDGLVTIQDENQRPGSPLYGNLNLNQLAVAGHSRGGGAALLAAAAEPSVNAVLALAPWLEDQFINSTTLDQDVPVLFLSGQLDESAPNDVHTNLFYAYTPETTDKLLYEISGGDHFIVKDPSNNSAMAMKALYWLEKYLTNDPTHC [TEP001]
Result: < 25 µg

Query: Look up purified protein yield per well for this sequence: TAGAEPSGGAPAAGGSGCGDVADPAAQGPLHVQTYSSGLRDGPDYGSQTMHYPTDGAPPYPALVIVPGFMSLESSIADHGPHFASHGIVTLTIGTNSTMDQPPARSEALLDALETIRAEHTRAGGPLEGKLDLSRLGVMGWSMGGGGTLITVDDHPELKAAITLCAWNPGQTYRNNQVPTLLFAGTADTLAGG [TEP195]
Result: 30.1 µg

Query: Look up purified protein yield per well for this sequence: QSNPYQRGPAPTASSLEASRGPLAISQFTVSRPSGYRAGTVYYPTNAGGTVGAIAVVPGYTAYQSDINWWGPRLASWGFVVITIDTNSTLDQPSSRSRQQLAALDQVAALSRTSSSPIYNKVDTSRMGVMGWSMGGGGSLISTENRPSLKASIPFAPWNSTSSFSSVVTPTFIIACQSDIIAPVASHADDFYDSLSRPPKMFLEIRGGSHYCANSSNNDKGLLGSKGVAWMKRYIDNDTRFTSYACSNPNTLAVSDFRTARCS [ESM104]
Result: < 25 µg

----------
experiment: PET hydrolysis, aromatic products released after 48 h (umol product/mg enzyme); higher = more PET depolymerization activity; details: substrate: cryPow; 60 °C; pH 5.5
Exercise: state measured PET hydrolysis for each of the sequences provided.
Could you keep your reply to the number by itself?

Query: Look up PET hydrolysis for this sequence: MAENPYERGPAPTTSSIEASRGSFATSTVTVSRLAVSGFGGGTIYYPTSTTAGTFGAISIAPGFTALQSSIAWLGPRLASQGFVVFTIDTLTTSDQPDSRGRQLLAALDYLTQQSSVRSRIDSSRLGVVGHSMGGGGTLEAARSRPSLQAAIPLTGWNLTKTWSTVRVPTLVVGAQADTVAPVASHSIPFYNSLPSSLDKAYLELRGASHFAPNSSNTTIAKYTLSWLKRFIDNDTRYEQFLCPIPSTSLSISDYRGNCPHNG [TEP182]
Result: 4

Query: Look up PET hydrolysis for this sequence: CVTPAPPPAPDVATVTVGAGNGFGGGTIYYPQGATGRLPVVAASPGFTENQNAVGWYGPLLAREGNIVITIDTNSPFDSPTSRADQLLAAIDYVVNRSSVASIADGSRTAVMGHSMGGGGSLEAALKRPGLKAIIPLAPWNTTTNFSGVRVPTLIVGCQNDAIAPVGSHAEPFYQSIPATTPKAYLEIAGGDHFCTNSENPTIANYVVAWTDRFLQGDTSASSRLCPPPPAGGSISEYRANCPY [ESM050]
Result: 106

Query: Look up PET hydrolysis for this sequence: AANPYQRGPAPTAASVAAVTGPFATASVSVPRGNGFGGGVIYYPTDTSQGTFGGLAISPGLNGTWPGIAWLGSRLASQGFIVFGIETNNLNDSPTSRGTQLLAALDYLAQRSSVRSRLDPGRLAVAGHSMGGGGALDAALRRPSLKAAIGNAPYLPSNTLAGNRVPTLIYAMQNDTLVPPSRLTSLYNTIPATTERAYLEITGAGHNYIGQPSTTLARTMIPWLKIFIDNDTRFSQFLCPLADQSGIRQYRSSCPLVPATTRALTAAAG [DP043]
Result: 7

Query: Look up PET hydrolysis for this sequence: ADNPYERGPNPTQASIAASRGTFATAEVSVGGGNGFAAAKIYYPTDTSQGTFGAIAIVPGYTATWAAEGAWMGPWLASFGFVVIGIDTLSRNDFDTARGTQLLAALDYLTQRSSVRSRVDASRLAVMGHSMGGGGAISAALRRPSLKAAVGLAPFSPSQGTSGMRVPSMLLAGQRDGTVTPSSVRNLYNAIPATTEKAYLELTGAGHGFPTSANSVMMRKVIPWLKIFVDQDTRYQQFLCPLVDWTGITSYQSSCPLIPGGSTGTTYNLVNSSGKCADVNAASQVNGAALLLWTCHTNPNQRWTETSAKELRVYDNPKCMDAGAAQQGTRVTINSCSGGGSQKWTVNANGTVTNDLSGRCLGAAGGATTDNTPLVVASCDGSPGQQWTKQS [TEP093]
Result: 4

----------
test: PET hydrolysis, aromatic products released after 48 h (umol product/mg enzyme); higher = more PET depolymerization activity; conditions: substrate: cryPow; 60 °C; pH 5.5
observationType: PET hydrolysis
Could you keep your reply to the number by itself?

Query: Look up PET hydrolysis for this sequence: ADNPYQRGPDPTPASVAAVNGPFATASVSVPAGYGFGGGMIYYPTDTSQGTFGGIAISPGYTALFSAELAWMGPWLASHGFVVIGIETNSRNDFDEARGTQLLAALDYLTQQSPVRTRVDPNRLAVSGHSMGGGGALNAAIRRPSLKAAVGLAPFLPSSNLANDRVPTMVFAGQQDTVVSPSYVTNLYNSLPATTESAYLEIAGGDHGFPVGRPNQVMIRTMLPFVKIFLDNDTRYSQFLCPLMDSTGVVTYRSTCPLLPPGLPTTPPTSTSSNPTVGPTTPSTTAPTTTPAPGGACTATYRTTNSWPGGFQGEVTITAGSSAINGWTVRWTLGSGQTISQVWNGEVSITGSTVSVRNAPYNGSLPASGSTTFGFLGGGSPSSPSLTCTSP [TEP165]
Result: 25
